Values from paper PMC10786891

Overview of reported pKd across a group of binders:
- Test System: T1, EsCas13d, nuclease-dead (Eubacterium siraeum, UniProt B0MS50, R295A;H300A;R849A;H854A)
- T1 sequence: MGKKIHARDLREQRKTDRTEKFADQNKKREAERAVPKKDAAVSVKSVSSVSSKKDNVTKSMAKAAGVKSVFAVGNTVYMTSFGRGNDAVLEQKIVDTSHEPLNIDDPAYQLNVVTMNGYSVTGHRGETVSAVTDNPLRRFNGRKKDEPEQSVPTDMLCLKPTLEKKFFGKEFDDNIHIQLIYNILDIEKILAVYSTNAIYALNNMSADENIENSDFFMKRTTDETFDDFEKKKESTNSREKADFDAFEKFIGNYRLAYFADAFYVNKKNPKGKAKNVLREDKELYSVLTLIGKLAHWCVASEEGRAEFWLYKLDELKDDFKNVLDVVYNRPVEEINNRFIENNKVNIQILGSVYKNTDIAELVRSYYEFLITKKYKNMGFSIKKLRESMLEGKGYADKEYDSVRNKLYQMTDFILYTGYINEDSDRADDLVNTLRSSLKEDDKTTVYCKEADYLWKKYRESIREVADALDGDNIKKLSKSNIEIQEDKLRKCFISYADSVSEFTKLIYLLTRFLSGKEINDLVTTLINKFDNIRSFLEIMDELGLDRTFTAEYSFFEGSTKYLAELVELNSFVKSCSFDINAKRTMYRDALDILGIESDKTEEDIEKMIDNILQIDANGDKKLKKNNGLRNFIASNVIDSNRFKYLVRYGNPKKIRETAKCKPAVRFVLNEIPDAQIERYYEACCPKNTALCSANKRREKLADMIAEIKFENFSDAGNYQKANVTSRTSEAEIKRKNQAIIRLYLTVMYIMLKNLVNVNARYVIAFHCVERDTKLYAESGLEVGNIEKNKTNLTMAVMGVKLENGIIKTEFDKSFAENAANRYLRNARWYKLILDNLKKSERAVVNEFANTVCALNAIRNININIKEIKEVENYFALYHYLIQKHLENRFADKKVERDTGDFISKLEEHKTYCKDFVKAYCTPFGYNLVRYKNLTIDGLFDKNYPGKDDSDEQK
- Method: crRNA (strand 1, pre-loaded); Mg2+; 40 mM Tris-HCl pH 7.5, 150 mM NaCl, 6 mM MgCl2, 1 mM DTT, 0.1% Tween-20, 0.2 mg/ml BSA; 25 C; 10 min per concentration, then washed
- Cond: tags: His6-TwinStrep-SUMO cleaved; N-terminal SNAP kept (SNAP-Surface 488); label: 3' end held by stalled T7 RNA polymerase
Kindly note that pKd refers to -log10 of the concentration in mol/L and answer with the value alone.

Recorded result, target 1 U3G,U8G (mixed) RNA 1: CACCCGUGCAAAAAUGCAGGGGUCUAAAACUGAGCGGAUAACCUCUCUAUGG RNA 2: GGGAAUGGAUCCACAUCUACGAAUUCGUACCAUAGAGAGGUUAGCCGCGCACCGAGAUCGGAAGAGCACACGU , pKd: 7.97

Continuing:
Recorded result, target 1 insC 3' of 14,insA 3' of 13 (mixed) RNA 1: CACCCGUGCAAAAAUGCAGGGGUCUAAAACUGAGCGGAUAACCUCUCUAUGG RNA 2: GGGAAUGGAUCCACAUCUACGAAUUCGUACCAUAGAGACGAGUUAUCCGCUCACCGAGAUCGGAAGAGCACACGU , pKd: 7.55

Recorded result, target 2 MT 5'PFS CUC 3'PFS UGU (mixed) RNA 1: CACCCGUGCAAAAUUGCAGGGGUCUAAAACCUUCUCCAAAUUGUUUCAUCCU RNA 2: GGGAAUGGAUCCACAUCUACGAAUUCCUCAGGAUGAAACAAUUUGGAGAAGUGUAGAUCGGAAGAGCACACGU , pKd: 8.65

Recorded result, target 2 MT 5'PFS CGG 3'PFS CUA (mixed) RNA 1: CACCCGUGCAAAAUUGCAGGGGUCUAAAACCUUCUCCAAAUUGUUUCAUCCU RNA 2: GGGAAUGGAUCCACAUCUACGAAUUCCGGAGGAUGAAACAAUUUGGAGAAGCUAAGAUCGGAAGAGCACACGU , pKd: 8.21

Recorded result, target 2 MT 5'PFS ACA 3'PFS AUC (mixed) RNA 1: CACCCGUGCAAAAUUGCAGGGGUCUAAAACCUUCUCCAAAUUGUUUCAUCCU RNA 2: GGGAAUGGAUCCACAUCUACGAAUUCACAAGGAUGAAACAAUUUGGAGAAGAUCAGAUCGGAAGAGCACACGU , pKd: 8.21

Recorded result, target 2 MT 5'PFS CAU 3'PFS UCA (mixed) RNA 1: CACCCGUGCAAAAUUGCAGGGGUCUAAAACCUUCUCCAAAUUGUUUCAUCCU RNA 2: GGGAAUGGAUCCACAUCUACGAAUUCCAUAGGAUGAAACAAUUUGGAGAAGUCAAGAUCGGAAGAGCACACGU , pKd: 8.19

Recorded result, target 3 insA 3' of 10 (mixed) RNA 1: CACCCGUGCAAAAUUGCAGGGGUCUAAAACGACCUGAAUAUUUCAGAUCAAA RNA 2: GGGAAUGGAUCCACAUCUACGAAUUCGUUUUUGAUCUGAAAUAAUUCAGGUCUGCAGAUCGGAAGAGCACACGU , pKd: 7.26

Recorded result, target 1 G15A (mixed) RNA 1: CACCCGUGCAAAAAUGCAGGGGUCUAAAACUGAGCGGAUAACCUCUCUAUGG RNA 2: GGGAAUGGAUCCACAUCUACGAAUUCGUACCAUAGAAAGGUUAUCCGCUCACCGAGAUCGGAAGAGCACACGU , pKd: 7.97

Recorded result, target 2 MT 5'PFS CAC 3'PFS UUU (mixed) RNA 1: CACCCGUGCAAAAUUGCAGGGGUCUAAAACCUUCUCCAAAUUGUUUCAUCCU RNA 2: GGGAAUGGAUCCACAUCUACGAAUUCCACAGGAUGAAACAAUUUGGAGAAGUUUAGAUCGGAAGAGCACACGU , pKd: 8.28

Recorded result, target 2 MT 5'PFS CAC 3'PFS CAG (mixed) RNA 1: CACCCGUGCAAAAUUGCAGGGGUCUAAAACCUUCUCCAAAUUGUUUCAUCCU RNA 2: GGGAAUGGAUCCACAUCUACGAAUUCCACAGGAUGAAACAAUUUGGAGAAGCAGAGAUCGGAAGAGCACACGU , pKd: 8.89

Recorded result, target 1 insC 3' of 12,insU 3' of 4 (mixed) RNA 1: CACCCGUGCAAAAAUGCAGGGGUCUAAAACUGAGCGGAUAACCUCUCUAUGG RNA 2: GGGAAUGGAUCCACAUCUACGAAUUCGUACCAUAGAGAGGCUUAUCCGCUUCACCGAGAUCGGAAGAGCACACGU , pKd: 8.12

Recorded result, target 1 MT 5'PFS UGG 3'PFS UAA (mixed) RNA 1: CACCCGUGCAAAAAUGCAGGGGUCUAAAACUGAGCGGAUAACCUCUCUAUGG RNA 2: GGGAAUGGAUCCACAUCUACGAAUUCUGGCCAUAGAGAGGUUAUCCGCUCAUAAAGAUCGGAAGAGCACACGU , pKd: 7.10
